Listing: MCV of selected molecules
organism: Rattus norvegicus; assay: Open TG-GATES - Regimen: Single; format: toxicity, organism-based, Sprague-Dawley; parameters: regimen Single, gender Male, age 6 weeks; conditions: in vivo, po, 0 mg/kg, 24 h, tissue Blood, route gavage, dose level Control
Value Type: MCV (fL)

INSERT INTO measurements (molecule, observed) VALUES
  ('Cn1cnc([N+](=O)[O-])c1Sc1ncnc2nc[nH]c12', 65.2),
  ('O=C1CN(/N=C/c2ccc(-c3ccc([N+](=O)[O-])cc3)o2)C(O)=N1', 64.9),
  ('S=C=Nc1cccc2ccccc12 [1-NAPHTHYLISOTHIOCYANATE]', 62.5),
  ('CS(=O)(=O)Nc1ccc([N+](=O)[O-])cc1Oc1ccccc1 [NIMESULIDE]', 66),
  ('COc1ccc(O)c(C(C)(C)C)c1.COc1ccc(O)cc1C(C)(C)C [BUTYLATED HYDROXYANISOLE]', 61.2),
  ('COc1ccc(Cl)cc1C(=O)NCCc1ccc(S(=O)(=O)NC(=O)NC2CCCCC2)cc1 [GLYBURIDE]', 62.4),
  ('Cc1cnc(NC(=O)C2=C(O)c3ccccc3S(=O)(=O)N2C)s1', 62.4),
  ('O=C1NC(=O)C(c2ccccc2)(c2ccccc2)N1', 62.6),
  ('C=CCO', 60.3),
  ('Cc1cccc(Nc2cc(Cl)nc(SCC(=O)O)n2)c1C', 63.2);

###

species on record: Rattus norvegicus; test: Open TG-GATES - Regimen: Single; format: toxicity, organism-based, Sprague-Dawley; design: regimen Single, gender Male, age 6 weeks; conditions: in vivo, po, 0 mg/kg, 6 h, tissue Plasma, route gavage, dose level Control
Value Type: Na (meq/L)

INSERT INTO results (compound, value_type, observed) VALUES
  ('S=C=Nc1cccc2ccccc12 [1-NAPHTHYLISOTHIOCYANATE]', 'Na', 141.8),
  ('O=C1CN(/N=C/c2ccc(-c3ccc([N+](=O)[O-])cc3)o2)C(O)=N1', 'Na', 140),
  ('COc1ccc(O)c(C(C)(C)C)c1.COc1ccc(O)cc1C(C)(C)C [BUTYLATED HYDROXYANISOLE]', 'Na', 142.6),
  ('COc1ccc(Cl)cc1C(=O)NCCc1ccc(S(=O)(=O)NC(=O)NC2CCCCC2)cc1 [GLYBURIDE]', 'Na', 141.2),
  ('CNCCC(Oc1ccc(C(F)(F)F)cc1)c1ccccc1.Cl (stereo unspecified) [FLUOXETINE HYDROCHLORIDE]', 'Na', 137.3),
  ('O=C1NC(=O)C(c2ccccc2)(c2ccccc2)N1', 'Na', 142.2),
  ('CS(=O)(=O)Nc1ccc([N+](=O)[O-])cc1Oc1ccccc1 [NIMESULIDE]', 'Na', 140.4),
  ('C=CCO', 'Na', 140.8),
  ('Cn1cnc([N+](=O)[O-])c1Sc1ncnc2nc[nH]c12', 'Na', 141.6),
  ('Cc1cccc(Nc2cc(Cl)nc(SCC(=O)O)n2)c1C', 'Na', 139.8),
  ('Cc1cnc(NC(=O)C2=C(O)c3ccccc3S(=O)(=O)N2C)s1', 'Na', 141.4);

###

Listing: TBIL of selected compounds
species: Rattus norvegicus; test: Open TG-GATES - Regimen: Daily Repeat; type: toxicity, organism-based, Sprague-Dawley; design: regimen Daily Repeat, gender Male, age 6 weeks; details: in vivo, po, 0 mg/kg, […], tissue Plasma, route gavage, dose level Control, time 7 day
Value Type: TBIL (mg/dL)

INSERT INTO results (compound, value_type, observed) VALUES
  ('CS(=O)(=O)Nc1ccc([N+](=O)[O-])cc1Oc1ccccc1 [NIMESULIDE]', 'TBIL', 0.3),
  ('O=P1(N(CCCl)CCCl)NCCCO1 (stereo not given) [CYCLOPHOSPHAMIDE ANHYDROUS]', 'TBIL', 0.016),
  ('Cc1cnc(NC(=O)C2=C(O)c3ccccc3S(=O)(=O)N2C)s1 [MELOXICAM]', 'TBIL', 0.1),
  ('COc1ccc(O)c(C(C)(C)C)c1.COc1ccc(O)cc1C(C)(C)C [BUTYLATED HYDROXYANISOLE]', 'TBIL', 0.048),
  ('O=C1NC(=O)C(c2ccccc2)(c2ccccc2)N1 [PHENYTOIN]', 'TBIL', 0.024);

###

Listing: MCHC of selected compounds
species: Rattus norvegicus; experiment: Open TG-GATES - Regimen: Single; assay type: toxicity, organism-based, Sprague-Dawley; design: regimen Single, gender Male, age 6 weeks; settings: in vivo, po, 0 mg/kg, 9 h, tissue Blood, route gavage, dose level Control
Value Type: MCHC (%)

INSERT INTO assay_data (compound, observed) VALUES
  ('CS(=O)(=O)Nc1ccc([N+](=O)[O-])cc1Oc1ccccc1 [NIMESULIDE]', 33.9),
  ('Cn1cnc([N+](=O)[O-])c1Sc1ncnc2nc[nH]c12', 33.2),
  ('CNCCC(Oc1ccc(C(F)(F)F)cc1)c1ccccc1.Cl (configuration not stated) [FLUOXETINE HYDROCHLORIDE]', 32.5),
  ('O=C1NC(=O)C(c2ccccc2)(c2ccccc2)N1', 33.4),
  ('C=CCO', 34.4),
  ('Cc1cnc(NC(=O)C2=C(O)c3ccccc3S(=O)(=O)N2C)s1', 34.1),
  ('Cc1cccc(Nc2cc(Cl)nc(SCC(=O)O)n2)c1C', 34.1);

###

organism: Rattus norvegicus; assay: Open TG-GATES - Regimen: Single; assay type: toxicity, organism-based, Sprague-Dawley; set-up: regimen Single, gender Male, age 6 weeks; settings: in vivo, po, 0 mg/kg, 3 h, tissue Blood, route gavage, dose level Control
Value Type: MCH (pg)

INSERT INTO results (compound, value_type, result_units, observed) VALUES
  ('COc1ccc(Cl)cc1C(=O)NCCc1ccc(S(=O)(=O)NC(=O)NC2CCCCC2)cc1 [GLYBURIDE]', 'MCH', 'pg', 21),
  ('COc1ccc(O)c(C(C)(C)C)c1.COc1ccc(O)cc1C(C)(C)C [BUTYLATED HYDROXYANISOLE]', 'MCH', 'pg', 21.2),
  ('C=CCO', 'MCH', 'pg', 20.8),
  ('Cn1cnc([N+](=O)[O-])c1Sc1ncnc2nc[nH]c12', 'MCH', 'pg', 21.9),
  ('Cc1cnc(NC(=O)C2=C(O)c3ccccc3S(=O)(=O)N2C)s1', 'MCH', 'pg', 21.2),
  ('S=C=Nc1cccc2ccccc12 [1-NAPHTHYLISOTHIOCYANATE]', 'MCH', 'pg', 22.1),
  ('O=C1CN(/N=C/c2ccc(-c3ccc([N+](=O)[O-])cc3)o2)C(O)=N1', 'MCH', 'pg', 22.9),
  ('Cc1cccc(Nc2cc(Cl)nc(SCC(=O)O)n2)c1C', 'MCH', 'pg', 21.5);

###

species: Rattus norvegicus; test: Open TG-GATES - Regimen: Single; type: toxicity, organism-based, Sprague-Dawley; set-up: regimen Single, gender Male, age 6 weeks; conditions: in vivo, po, 0 mg/kg, 24 h, tissue Plasma, route gavage, dose level Control
Value Type: A/G

INSERT INTO assay_data (compound, value_type, observed) VALUES
  ('COc1ccc(O)c(C(C)(C)C)c1.COc1ccc(O)cc1C(C)(C)C [BUTYLATED HYDROXYANISOLE]', 'A/G', 0.8),
  ('Cn1cnc([N+](=O)[O-])c1Sc1ncnc2nc[nH]c12', 'A/G', 1.2),
  ('COc1ccc(Cl)cc1C(=O)NCCc1ccc(S(=O)(=O)NC(=O)NC2CCCCC2)cc1 [GLYBURIDE]', 'A/G', 1.5),
  ('S=C=Nc1cccc2ccccc12 [1-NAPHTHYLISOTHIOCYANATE]', 'A/G', 1.6),
  ('C=CCO', 'A/G', 1.5);

###

species on record: Rattus norvegicus; test: Open TG-GATES - Regimen: Single; format: toxicity, organism-based, Sprague-Dawley; set-up: regimen Single, gender Male, age 6 weeks; conditions: in vivo, po, 0 mg/kg, 9 h, tissue Plasma, route gavage, dose level Control
Listing: Ca of selected compounds
Value Type: Ca (mg/dL)

INSERT INTO measurements (compound, value_type, result_units, observed) VALUES
  ('C=CCO', 'Ca', 'mg/dL', 10.4),
  ('Cn1cnc([N+](=O)[O-])c1Sc1ncnc2nc[nH]c12', 'Ca', 'mg/dL', 10.5),
  ('COc1ccc(Cl)cc1C(=O)NCCc1ccc(S(=O)(=O)NC(=O)NC2CCCCC2)cc1 [GLYBURIDE]', 'Ca', 'mg/dL', 10.1);
